Some molecules, each annotated with its measured EC50.
# ASSAY NOTES: Effective concentration of compound necessary to kill 50% of infective larvae of Molinema dessetae after 7 days was determined in vitro
# Format: functional
MEASUREMENT NAME: EC50

>>> assay_result("O=S(=O)(C1OC1c1ccc(Cl)c(Cl)c1)N1CCOCC1 (configuration not stated)")
"< 20 µM"
>>> assay_result("CN1CCN(S(=O)(=O)C#Cc2ccccc2)CC1")
"< 20 µM"
>>> assay_result("C[C@@H]1O[C@@H]1P(=O)([O-])[O-].[Na+].[Na+] [PHOSPHOMYCIN DISODIUM]")
"> 500 µM"
>>> assay_result("CCN(CC)C(=O)N1CCN(C)CC1 [DIETHYLCARBAMAZINE]")
"> 500 µM"
>>> assay_result("CN1CCN(S(=O)(=O)CC(=O)c2ccccc2)CC1")
"> 500 µM"
>>> assay_result("O=C(CN1CCOCC1)c1ccccc1")
"> 500 µM"
>>> assay_result("C[C@@H]1O[C@H]1S(=O)(=O)N1CCOCC1")
"> 500 µM"
>>> assay_result("C1COCCN1 [MORPHOLINE]")
"> 500 µM"
>>> assay_result("O=[N+]([O-])c1ccc(C2OC2S(=O)(=O)N2CCOCC2)cc1 (configuration not stated)")
"< 20 µM"
>>> assay_result("O=S(=O)(C#Cc1ccccc1)N1CCOCC1")
"< 20 µM"
>>> assay_result("CCOC(=O)N1CCN(S(=O)(=O)C2OC2c2ccccc2)CC1 (configuration not stated)")
"< 20 µM"
>>> assay_result("CN1CCNCC1 [METHYLPIPERAZINE]")
"> 500 µM"

###

# ASSAY NOTES: Effective concentration of compound necessary to kill 50% of infective larvae of Molinema dessetae after 7 days was determined in vitro
# Assay type: functional
pEC50: −log10 of the molar value.
MEASUREMENT NAME: pEC50

>>> assay_result("Cc1cccc(C2OC2S(=O)(=O)N2CCOCC2)c1 (configuration not stated)")
"> 4.70"
>>> assay_result("O=S(=O)(/C=C/c1ccccc1)N1CCOCC1")
"< 3.30"
>>> assay_result("Cc1ccccc1C1OC1S(=O)(=O)N1CCOCC1 (configuration not stated)")
"> 4.70"
>>> assay_result("C[C@@]1(c2ccccc2)O[C@@H]1S(=O)(=O)N1CCOCC1")
"< 3.30"
>>> assay_result("C[C@]1(c2ccccc2)O[C@@H]1S(=O)(=O)N1CCOCC1")
"< 3.30"
>>> assay_result("CN1CCN(CC(=O)c2ccccc2)CC1")
"< 3.30"
>>> assay_result("O=C(CS(=O)(=O)N1CCOCC1)c1ccccc1")
"< 3.30"

###

# ASSAY NOTES: Effective concentration of compound necessary to kill 50% of infective larvae of Molinema dessetae after 7 days was determined in vitro
# Type: functional
MEASUREMENT NAME: EC50

>>> assay_result("IVERMECTIN")
"< 20 µM"
